// data source = patent US8940731B2

- tgt: human H3 receptor (Homo sapiens, UniProt Q9Y5N1)
- Construct: expressed in transfected cells; host or cells: SK-N-MC sublines with a reporter construct
- Sequence (Q9Y5N1 whole entry): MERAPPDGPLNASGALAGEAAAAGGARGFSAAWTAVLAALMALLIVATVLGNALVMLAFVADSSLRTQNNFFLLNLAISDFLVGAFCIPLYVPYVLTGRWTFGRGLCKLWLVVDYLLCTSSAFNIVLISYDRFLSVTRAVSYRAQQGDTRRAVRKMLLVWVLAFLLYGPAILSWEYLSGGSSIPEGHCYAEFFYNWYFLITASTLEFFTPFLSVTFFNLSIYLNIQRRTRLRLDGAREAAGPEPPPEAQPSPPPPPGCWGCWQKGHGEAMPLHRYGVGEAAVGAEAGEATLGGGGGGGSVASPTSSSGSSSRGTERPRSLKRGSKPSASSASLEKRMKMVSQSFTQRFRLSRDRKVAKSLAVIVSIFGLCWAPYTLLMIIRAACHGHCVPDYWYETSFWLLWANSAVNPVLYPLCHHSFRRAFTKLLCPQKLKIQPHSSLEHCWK
- procedure-details: Cyclic AMP Accumulation (human H3 receptor)
- Format: cell-based
Counter-ions that a name gives are not always drawn.
measured-parameter: Kb (nM)

                                   compound  experimental_value
0  N#Cc1nc(C(=O)N2CCCN(C3CC3)CC2)ccc1Oc1ccccc1F                3.63
1  O=C(c1ccc(Oc2ccccc2)nc1)N1CCCN(C2CCCC2)CC1                1.15
2  Cc1ccccc1Oc1ccc(C(=O)N2CCCN(C3CCC3)CC2)cn1                 0.2
3  N#Cc1nc(C(=O)N2CCCN(C3CC3)CC2)ccc1Oc1cccnc1 [Example 56, hydrochloride salt]                2.34
4  O=C(c1ccc(Oc2ccc(Cl)c(Cl)c2)nc1)N1CCCN(C2CCCC2)CC1                1.12
5  CSc1ccc(Oc2ccc(C(=O)N3CCCN(C4CCC4)CC3)cn2)cc1C                1.32
6  O=C(c1ccc(Oc2ccccc2F)nc1)N1CCCN(C2CCC2)CC1               0.813
7  O=C(c1ccc(Oc2ccccc2F)nc1)N1CCCN(C2CC2)CC1                 2.4
8  O=C(c1ccc(Oc2ccc(Cl)c(Cl)c2)nc1)N1CCCN(C2CC2)CC1                8.71

====

- tgt: human H3 receptor (Homo sapiens)
- Construct: expressed in transfected cells; host or cells: SK-N-MC sublines with a reporter construct
- procedure-details: Cyclic AMP Accumulation (human H3 receptor)
- Assay type: cell-based
- condition-parameters: SK-N-MC subline expressing reporter construct and human H3 receptor; average
Where a name gives a salt, the structure may show the parent alone.
Human pA2 by entry:
measured-parameter: Human pA2

In [3]: df
Out[3]:
                                   molecule                               tgt  measured_parameter  experimental_value
0  O=C(c1ccc(Oc2cccc(F)c2)nc1)N1CCCN(C2CCC2)CC1  human H3 receptor (Homo sapiens)           Human pA2                9.40
1  O=C(c1ccc(Oc2ccc(Cl)c(Cl)c2)nc1)N1CCCN(C2CCC2)CC1  human H3 receptor (Homo sapiens)           Human pA2                9.26
2  O=C(c1ccc(Oc2ccc(Cl)cc2)nc1)N1CCCN(C2CCC2)CC1  human H3 receptor (Homo sapiens)           Human pA2                9.22
3  O=C(c1ccc(Sc2ccccc2)nc1)N1CCCN(C2CCC2)CC1  human H3 receptor (Homo sapiens)           Human pA2                9.48
4  O=C(c1ccc(Oc2cccc(Cl)c2)cn1)N1CCCN(C2CCC2)CC1 [Example 70, trifluoroacetic acid salt]  human H3 receptor (Homo sapiens)           Human pA2                8.72
5  O=C(c1ccc(Sc2ccc(F)cc2)nc1)N1CCCN(C2CCC2)CC1  human H3 receptor (Homo sapiens)           Human pA2                9.48
6  N#Cc1cccc(Oc2ccc(C(=O)N3CCCN(C4CC4)CC3)cn2)c1  human H3 receptor (Homo sapiens)           Human pA2                8.53
7  O=C(c1ccc(Oc2ccc(Cl)cc2)cn1)N1CCCN(C2CCC2)CC1 [Example 68, trifluoroacetic acid salt]  human H3 receptor (Homo sapiens)           Human pA2                8.61
